# assay target: MCH-5 (Homo sapiens, UniProt Q14790)
# Sequence (Q14790 217-374 limits assumed, species assumed): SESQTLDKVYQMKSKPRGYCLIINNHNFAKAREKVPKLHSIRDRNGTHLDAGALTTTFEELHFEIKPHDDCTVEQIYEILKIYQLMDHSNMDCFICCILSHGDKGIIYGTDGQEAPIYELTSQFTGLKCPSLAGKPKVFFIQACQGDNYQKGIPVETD
# Sequence (Q14790 385-479 limits assumed, species assumed): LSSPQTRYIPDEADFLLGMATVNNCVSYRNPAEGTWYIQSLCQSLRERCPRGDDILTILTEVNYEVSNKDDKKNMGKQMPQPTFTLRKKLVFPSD
# protocol: Dissociation constant Ki and irreversible rate constant k3 for irreversible inhibitors, Mch5
# Format: biochemical
# test context: continuous assay 60 min, reaction initiated by adding enzyme
value type: MCH-5 k3/Ki

Incoming: Return reported MCH-5 k3/Ki for target or system MCH-5 (Homo sapiens, UniProt Q14790), item `CC(C)[C@H](NC(=O)COc1cccc2ccccc12)C(=O)N[C@@H](CC(=O)O)C(=O)COc1cc(F)cc(F)c1F` .
Outgoing: 1,470 M^−1s^−1

Incoming: For MCH-5 (Homo sapiens, UniProt Q14790), give MCH-5 k3/Ki of the listed molecule: `CC(C)[C@H](NC(=O)COc1cccc2ccccc12)C(=O)N[C@@H](CC(=O)O)C(=O)COc1ccc(F)cc1F`
Outgoing: 630 M⁻¹ s⁻¹

Incoming: Provide MCH-5 (Homo sapiens, UniProt Q14790) MCH-5 k3/Ki reading for `CC(C)[C@H](NC(=O)COc1cccc2ccccc12)C(=O)N[C@@H](CC(=O)O)C(=O)COc1c(F)cc(F)cc1F` .
Outgoing: 9,080 M^−1s^−1

Incoming: Tell me its MCH-5 k3/Ki on MCH-5 (Homo sapiens, UniProt Q14790): `CC(C)[C@H](NC(=O)COc1cccc2ccccc12)C(=O)N[C@@H](CC(=O)O)C(=O)COn1nnc2ccccc2c1=O`
Outgoing: 18,200 M^−1s^−1

Incoming: Enter recorded MCH-5 k3/Ki with MCH-5 (Homo sapiens, UniProt Q14790) for CC(C)[C@H](NC(=O)COc1cccc2ccccc12)C(=O)NC(CC(=O)O)C(=O)CF (mixture of isomers) here.
Outgoing: 71,700 M^−1s^−1

Incoming: Look up MCH-5 (Homo sapiens, UniProt Q14790) data: MCH-5 k3/Ki of `CC(C)[C@H](NC(=O)COc1ccccc1-c1ccccc1)C(=O)N[C@@H](CC(=O)O)C(=O)COC(=O)c1c(Cl)cccc1Cl` , then report it.
Outgoing: 9,340 M^−1s^−1

Incoming: Provide MCH-5 k3/Ki, recorded with MCH-5 (Homo sapiens, UniProt Q14790), of `Cc1cc(OCC(=O)[C@H](CC(=O)O)NC(=O)[C@@H](NC(=O)COc2cccc3ccccc23)C(C)C)cc(=O)o1`
Outgoing: 170 M⁻¹ s⁻¹
